Ref: paper PMC5479578

MEASURED TARGET: T1, NHERF1 PDZ1 domain (1-140) (human, UniProt O14745 1-140)
T1 sequence (looked up): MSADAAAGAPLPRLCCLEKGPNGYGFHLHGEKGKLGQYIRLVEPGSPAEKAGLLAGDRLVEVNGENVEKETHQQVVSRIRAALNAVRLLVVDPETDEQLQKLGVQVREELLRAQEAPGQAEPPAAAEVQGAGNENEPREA
EXPERIMENTAL PROTOCOL: fluorescence polarisation
Ends that are not written are not given here. * marks the point of attachment. FITC = O=C1OC2(c3ccc(O)cc3Oc3cc(O)ccc32)c2ccc(NC(=S)*)cc21
ASSAY METRIC: Kd (µM)

> print(dat)
                                     binder  value.unit  observed
1  {FITC}-LQEEWETVM [FITC-labeled carboxy-terminal PTHR 9-residue peptide]          µM         1
